outcome_measure: melting point

stdin: Look up and report measured melting point for this entry: Cc1ccc(C2SC(=S)N(C(=O)NN3CCOCC3)C2C)cc1 (stereo not given)
stdout: 101 to 103 °C

stdin: In one line, give reported melting point of the entry CC(C)Cc1ccc(C(C)C(=O)NCCCCn2cnc3c(N)nc4ccccc4c32)cc1 (stereo not given) .
stdout: 172 to 173 °C

stdin: Please supply the value of reported melting point for the item CC1OC(=O)N2c3ccc(OCCCC(F)(F)F)cc3CCC12 (stereo not given)
stdout: 79.1 to 79.2 °C

stdin: Give the reported value of melting point for this record: OC1C=C(c2ccc(C(F)(F)F)cc2)CN(Cc2ccccc2)C1 (stereo not given)
stdout: 88 to 90 °C

stdin: Please report the measured melting point for `NC(=O)c1cccc(CSCCNC(=O)c2c(Cl)cccc2Cl)c1`
stdout: 148 to 150 °C

stdin: Look up and report measured melting point for this entry: `CN(C)CCNC(=O)c1nc(N)sc1-c1ccccn1`
stdout: 143 to 144 °C

stdin: Give melting point for `N#Cc1cc(N)ccc1Oc1ccccc1`
stdout: 89 °C

stdin: For the molecule `Nc1ccc(C(=O)N(CCN2CCC(C(=O)c3ccc(F)cc3)CC2)c2cccc(N)c2)cc1` , give its measured melting point value.
stdout: 108 to 110 °C

stdin: Name the recorded melting point of the item COC(=O)C1=NC2=COc3c(OC)cccc3N2C1C(=O)O (stereo not given) in your answer.
stdout: 167 to 168 °C

stdin: Kindly indicate its recorded melting point. Item: O=C(CCc1ccccc1)NC1CCC(=O)N2CCCC(C(=O)NC3CC(=O)OC3OCc3ccccc3)N2C1=O (stereo not given)
stdout: 92 to 94 °C

stdin: Output melting point of CCOC(=O)C(C(=O)OCC)N1CS(=O)c2c(C)cc([N+](=O)[O-])cc21 (stereo not given)
stdout: 97 °C

stdin: Look up melting point of NC(=O)N1c2ccccc2C(Br)C(Br)c2ccccc21 (stereo not given) and report it.
stdout: 144 °C

stdin: Return melting point for the following molecule: `CCCOc1ccc(S(=O)(=O)NCc2ccncc2)cc1-c1nc2cc(N)c([N+](=O)[O-])cc2c(=O)[nH]1`
stdout: 157 to 160 °C

stdin: # return recorded melting point for input CC(=O)OCC1OC(n2c(=O)sc3cnc(N)nc32)C(OC(C)=O)C1OC(C)=O (stereo not given)
stdout: 121 to 123 °C

stdin: // fetch melting point given entry Cn1c(-c2ccccc2S(=O)c2nc3ccccc3[nH]2)nc2ccccc21 (stereo not given)
stdout: 164 °C

stdin: Determine its reported melting point: `CCCNC(=O)c1cnc2c(C)cccn2c1=O`
stdout: 138 to 140 °C

stdin: Report melting point for `CN1CCC(=C2c3c(ccn3C)C=Cn3cnnc32)CC1`
stdout: 262 °C

stdin: Kindly indicate its recorded melting point. Item: CCN1CCNC(=O)C1c1ccc(Nc2nc(-c3ccc(F)c(NC(=O)c4cc5c(s4)CCCC5)c3C)cn(C)c2=O)cc1 (stereo not given)
stdout: 179 to 180 °C

stdin: Give the value of melting point reported for the following: `Cc1cc(-c2nncc3c(C(C)(C)C)c(OCc4ncn(C)n4)nn23)no1`
stdout: 161 to 164 °C

stdin: Tell me its melting point given `COc1ccc(Cn2cccc2C(=O)CC(=O)C(=O)O)cc1` as the entry.
stdout: 167 to 168 °C
